measured_on: SSTR1 (Homo sapiens)
Construct: purchased Perkin Elmer ES-520-M400UA; host or cells: CHO-K1 membranes
Sequence (P30872 whole entry): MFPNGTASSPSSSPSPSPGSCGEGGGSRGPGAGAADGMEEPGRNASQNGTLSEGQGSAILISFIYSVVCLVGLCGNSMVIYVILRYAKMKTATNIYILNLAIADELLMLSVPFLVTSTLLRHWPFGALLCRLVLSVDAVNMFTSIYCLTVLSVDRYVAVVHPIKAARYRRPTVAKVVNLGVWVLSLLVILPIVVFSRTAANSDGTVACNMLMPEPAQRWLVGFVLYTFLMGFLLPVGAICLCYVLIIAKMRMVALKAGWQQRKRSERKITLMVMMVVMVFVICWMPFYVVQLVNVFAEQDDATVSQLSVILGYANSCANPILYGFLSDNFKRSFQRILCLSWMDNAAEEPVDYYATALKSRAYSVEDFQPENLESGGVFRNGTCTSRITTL
protocol: SSTR1 I-125 somatostatin competition binding assay for selectivity versus SSTR1 (CHO-K1 membranes)
condition_notes: competition with I-125 somatostatin, membranes from CHO-K1 overexpressing SSTR1; read-out: SSTR1 Binding pIC50 (converted)
Experimental: SSTR1 I-125 Somatostatin Competition Binding Assay for Selectivity Versus SSTR1 Membranes from CHO-K1 cells overexpressing SSTR1 are purchased from Perkin Elmer (catalog number ES-520-M400UA). Test compounds are suspended in DMSO and then diluted in assay buffer (25 mM HEPES pH 7.4, 10 mM MgCl2, 1 mM CaCl2), 0.5% BSA) plus 0.4 nM I-125 labeled somatostatin (Perkin Elmer catalog number NEX389). […] The filters are then read in a MicroBeta scintillation counter. […]
measurement_name: IC50

# count of solved cases: 2
Lookup: Suppose we examine the compound CC(C)(NC(=O)CCN1CCC1)c1cccc(F)c1 [Example 163] ; what IC50 value has been reported?
Found: > 50.1 µM

Lookup: Same for Cc1cccc(C(C)(C)NC(=O)C[C@@H]2CCCN2C)c1C [Example 92]
Found: > 50.1 µM

Here is the next item to consider.
Lookup: Suppose we examine the compound CN1CCC[C@H]1CC(=O)NC(C)(C)c1ccccc1F [Example 160] ; what IC50 value has been reported?
Found: > 50.1 µM

---

Please go through the items and note down their log10 EC50.
measured_on: SSTR4 (Homo sapiens, UniProt P31391)
Construct: host or cells: CHO-K1
Sequence (P31391 whole entry): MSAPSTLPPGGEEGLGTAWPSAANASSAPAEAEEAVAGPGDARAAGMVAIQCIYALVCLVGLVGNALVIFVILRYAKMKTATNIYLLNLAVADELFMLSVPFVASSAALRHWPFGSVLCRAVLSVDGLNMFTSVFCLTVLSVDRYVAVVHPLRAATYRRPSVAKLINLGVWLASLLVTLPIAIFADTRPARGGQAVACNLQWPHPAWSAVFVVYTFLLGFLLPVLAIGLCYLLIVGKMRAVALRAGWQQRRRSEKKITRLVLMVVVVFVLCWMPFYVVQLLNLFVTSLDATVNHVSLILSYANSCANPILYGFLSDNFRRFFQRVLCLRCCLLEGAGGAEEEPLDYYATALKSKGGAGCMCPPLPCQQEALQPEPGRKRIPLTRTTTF
protocol: Inhibition of forskolin stimulated cAMP in CHO-K1 cells overexpressing SSTR4
Format: cell-based
condition_notes: read-out: SSTR4 Activity pEC50 (converted)
Answers are given as log10 of EC50 in nM.

Lookup: Suppose we examine the compound C[C@@H](CN1CCCC1)C(=O)NC(C)(C)c1ccccc1Cl (single isomer, unassigned) [Example 137] ; what log10 EC50 value has been reported?
Found: 2.50

Lookup: Same for CN1CCC[C@@H]1CC(=O)NC(C)(C)c1nccc2occc12 [Example 39]
Found: 1.70

Lookup: Same for Cc1cccc(C(C)(C)NC(=O)CCN2CCC2)c1Cl [Example 161]
Found: 0.60

Lookup: Same for O=C(CCN1CCC1)N[C@H](c1ccccc1)C(F)F (single isomer, unassigned) [Example 201]
Found: 1.50

Lookup: Same for C[C@@H](C(=O)NC(C)(C)c1nccc2ccccc12)[C@H]1CCCN1C (racemic) [Example 111]
Found: 0.50

Lookup: Same for Cc1cccc2c(C(C)(C)NC(=O)C[C@@H]3CCCCN3C)nccc12 (single isomer, unassigned) [Example 9]
Found: 1.10

Go through the list and state log10 EC50 for each entry.
1. Cc1cccc(C(C)(C)NC(=O)[C@H](C)CN2CCC2)c1Cl (single isomer, unassigned) [Example 144]
2. Cn1nc(C(C)(C)NC(=O)CC23CCCN2CCC3)c2ccccc21 [Example 10]

Found:
[2.00, 2.30]

Go through the list and state log10 EC50 for each entry.
1. COc1c(C)cccc1C(C)(C)NC(=O)[C@@H](C)CN1CCC1 (single isomer, unassigned) [Example 147]
2. O=C(CCN1CCC1)N[C@H](c1cccc(Cl)c1)C(F)F [Example 202]
3. Cc1cccnc1OCC1(NC(=O)[C@@H](C)[C@@H]2CCCN2C)CC1 (single isomer, unassigned) [Example 176]

Found:
1. 1.80
2. -0.10
3. 2.10

These measurements were taken from patent US20230150981A1.
